# methodNotes: qHTS assay to test for compound auto fluorescence at 590 nm (red) in HepG2 cell free culture (AID 720684); further: on the % scale 0 is the no-effect control and ±100 the full control effect
# conditions: cell-free medium autofluorescence, red 540/590 nm; series mostly up to 91.3 µM
Activity calls are given as the source filed them. The call rests on the fitted dose curve; in most records, active means well fitted curve in the direction sought with a large enough effect in the repeat runs; inconclusive means weak or mixed curves; inactive means flat fitted curve, though single readings scatter.
measurementType: fluorescence, % of Rose Bengal

>>> observedresult("C[C@H]1C[C@H]2[C@@H]3CCC4=CC(=O)C=C[C@]4(C)[C@@]3(Cl)[C@@H](O)C[C@]2(C)[C@@]1(O)C(=O)CO")
"inactive"
>>> observedresult("CCCCCC[C@@H](O)C/C=C\\CCCCCCCC(=O)OC")
"inactive"
>>> observedresult("CCN(CC)CCOC(=O)C(Cc1cccc2ccccc12)CC1CCCO1 (stereo not given)")
"0.633% [at 18.6 µM] (inactive)"
>>> observedresult("NCc1ccccc1Sc1ccccc1CO")
"inactive"
>>> observedresult("C=C(C)C(=O)OCCO")
"inactive"
